assay: in vitro; conditions: pooled liver microsomes 0.5 mg/mL protein, test compound 1 μM, NADPH 1 mM, 37° C., 0-45 min, LC-MS/MS
Structures can show the parent of a compound that is named as a salt.
Listed compounds paired with reported T1/2
# value in min; strip the unit string

Problem: Consider the compound shown here: `[2H]c1[nH]c2c([2H])c([2H])c([2H])c3c2c1C[C@@H]1C3=C[C@@H](C(=O)N(CC)CC)CN1C` What is its recorded T1/2?
Result: 82.8

Problem: Record request: T1/2 value, item `[2H]C([2H])([2H])C([2H])([2H])N(C(=O)[C@@H]1C=C2c3cccc4[nH]c(Br)c(c34)C[C@H]2N(C)C1)C([2H])([2H])C([2H])([2H])[2H]`
Result: 31.1

Problem: Look up T1/2: [2H]c1c([2H])c2c3c(c(Br)[nH]c3c1[2H])C[C@@H]1C2=C[C@@H](C(=O)N(CC)CC)CN1C [Compound 1, formate]
Result: 26.3

Problem: Quick one: T1/2 for `[2H]C([2H])([2H])C([2H])([2H])N(C(=O)[C@@H]1C=C2c3cccc4[nH]cc(c34)C[C@H]2N(C)C1)C([2H])([2H])C([2H])([2H])[2H]` ?
Result: 80.8

Problem: I would be grateful if you could share the reported T1/2 for `[2H]c1[nH]c2cccc3c2c1C[C@@H]1C3=C[C@@H](C(=O)N(CC)CC)CN1C` .
Result: 77.7

Problem: For the compound shown here, CCN(CC)C(=O)[C@@H]1C=C2c3cccc4[nH]c(Br)c(c34)C[C@H]2N(C)C1 [Compound 2-Br-LSD, 2-Bromolysergic acid diethylamide, reference compound] , give the reported T1/2.
Result: 24.6

Problem: # lookup: T1/2 of `[2H]C([2H])([2H])N1C[C@H](C(=O)N(CC)CC)C=C2c3cccc4[nH]c(Br)c(c34)C[C@H]21`
Result: 28.1

Problem: Item under review: `[2H]C([2H])([2H])N1C[C@H](C(=O)N(C([2H])([2H])C([2H])([2H])[2H])C([2H])([2H])C([2H])([2H])[2H])C=C2c3cccc4[nH]c(Br)c(c34)C[C@H]21` . Reported T1/2?
Result: 35.7
